Item-by-item account of inhibition at 100 µM
- System under test: epidermal growth factor receptor tyrosine kinase (Homo sapiens)
- Construct: A native 170,000 epidermal growth factor receptor-kinase complex from shed plasma membrane vesicles; endogenous in cells
- Sequence (P00533 25-1210): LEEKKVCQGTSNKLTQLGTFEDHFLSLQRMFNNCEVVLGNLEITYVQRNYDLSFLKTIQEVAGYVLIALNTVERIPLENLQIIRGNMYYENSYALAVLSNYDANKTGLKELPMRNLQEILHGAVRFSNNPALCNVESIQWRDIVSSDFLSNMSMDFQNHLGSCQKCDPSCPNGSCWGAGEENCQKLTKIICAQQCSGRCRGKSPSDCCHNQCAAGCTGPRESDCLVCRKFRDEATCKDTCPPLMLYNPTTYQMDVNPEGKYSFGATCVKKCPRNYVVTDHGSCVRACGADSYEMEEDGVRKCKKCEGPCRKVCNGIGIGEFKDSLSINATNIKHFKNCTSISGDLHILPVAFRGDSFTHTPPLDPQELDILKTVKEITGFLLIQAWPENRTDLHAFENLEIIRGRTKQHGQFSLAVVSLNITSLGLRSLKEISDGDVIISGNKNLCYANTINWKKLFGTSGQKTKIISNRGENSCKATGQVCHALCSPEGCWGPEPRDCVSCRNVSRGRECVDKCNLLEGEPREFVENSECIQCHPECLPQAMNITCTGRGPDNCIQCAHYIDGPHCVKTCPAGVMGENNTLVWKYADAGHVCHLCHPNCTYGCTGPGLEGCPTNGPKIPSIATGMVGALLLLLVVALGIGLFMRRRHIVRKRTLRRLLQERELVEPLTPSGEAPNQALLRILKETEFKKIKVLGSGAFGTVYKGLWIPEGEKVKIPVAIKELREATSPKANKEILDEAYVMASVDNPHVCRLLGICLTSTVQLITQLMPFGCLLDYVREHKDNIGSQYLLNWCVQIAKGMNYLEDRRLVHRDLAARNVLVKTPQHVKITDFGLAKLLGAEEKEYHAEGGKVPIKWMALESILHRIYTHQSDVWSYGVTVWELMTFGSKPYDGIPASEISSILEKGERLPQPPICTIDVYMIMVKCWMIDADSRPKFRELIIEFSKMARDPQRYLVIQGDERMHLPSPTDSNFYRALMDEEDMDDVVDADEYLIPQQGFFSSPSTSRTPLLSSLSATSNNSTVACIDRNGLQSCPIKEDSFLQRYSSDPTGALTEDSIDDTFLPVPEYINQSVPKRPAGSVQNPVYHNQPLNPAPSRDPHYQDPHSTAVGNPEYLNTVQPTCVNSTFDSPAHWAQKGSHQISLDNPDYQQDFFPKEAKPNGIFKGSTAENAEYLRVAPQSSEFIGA
- Sequence (P01133 971-1023 partner limits assumed): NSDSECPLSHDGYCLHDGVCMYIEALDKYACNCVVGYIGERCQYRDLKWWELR
- Assay summary: EGF receptor tyrosine kinase assay (P^32 incorporation in GAT)
- Type: biochemical
- Cond: at 100 μM; EGRF-R; read-out: % Inhibition at 100 μM (EGFR TK)
Reported property: inhibition at 100 µM

1) COC(=O)CCCC1C(=S)Nc2ccccc21 (stereo not drawn) [Compound 17, methyl 4-(2-thioxo-3-indolinyl)butanoate]    12.5%
2) COC(=O)CCC1C(=S)N(C)c2ccccc21 (stereo not drawn) [Compound 11]    24%
3) Cn1c(SSc2c(C(=O)Nc3ccncc3)c3ccccc3n2C)c(C(=O)Nc2ccncc2)c2ccccc21 [Compound 116]    4%
4) Cn1c(SSc2c(C(=O)Nc3ccccc3)c3ccc(Cl)cc3n2C)c(C(=O)Nc2ccccc2)c2ccc(Cl)cc21 [Compound 85]    8%
5) COC(=O)c1ccc(CNC(=O)CCc2c(SSc3[nH]c4ccccc4c3CCC(=O)NCc3ccc(C(=O)OC)c(O)c3)[nH]c3ccccc23)cc1O [Compound 57]    46%
6) Cn1c(SSc2c(C(=O)Nc3ccccn3)c3ccccc3n2C)c(C(=O)Nc2ccccn2)c2ccccc21 [Compound 122]    51%
7) COc1cccc2c1c(C(=O)Nc1ccccc1)c(SSc1c(C(=O)Nc3ccccc3)c3c(OC)cccc3n1C)n2C [Compound 79]    11%
8) Cn1c([Se][Se]c2c(C(=O)OC(C)(C)C)c3ccccc3n2C)c(C(=O)OC(C)(C)C)c2ccccc21 [Compound 129]    31%
9) Cn1c(S)c(C(=O)Nc2ccccc2)c2cccnc21 [Compound 19]    10%
10) Cc1c(SSc2c(C)c3ccccc3n2C)n(C)c2ccccc12 [Compound 103]    7%
11) Cn1c(SSc2c(C(=O)Nc3ccccc3)c3cccc(Cl)c3n2C)c(C(=O)Nc2ccccc2)c2cccc(Cl)c21 [Compound 74]    23%
12) COC(=O)CCCc1c(SSc2[nH]c3ccccc3c2CCCC(=O)OC)[nH]c2ccccc12 [Compound 67]    18%
13) CCOC(=O)CCC1C(=S)Nc2ccccc21 (stereo not drawn) [Compound 10]    10%
14) Cn1c(SSc2c(C(=O)Nc3cccnc3)c3ccccc3n2C)c(C(=O)Nc2cccnc2)c2ccccc21 [Compound 117]    25%
15) O=C(CCC1C(=S)Nc2ccccc21)NCc1ccccc1 (stereo not drawn) [Compound 13]    43%
16) COC(=O)c1ccccc1NC(=O)c1c(SSc2c(C(=O)Nc3ccccc3C(=O)OC)c3ccccc3n2C)n(C)c2ccccc12 [Compound 108]    20%
17) CC(=O)NC(Cc1c(SSc2[nH]c3ccccc3c2CC(NC(C)=O)C(=O)NCc2ccccc2)[nH]c2ccccc12)C(=O)NCc1ccccc1 (racemic) [Compound 60]    53%
18) COC(=O)CCCC1C(=S)N(C)c2ccccc21 (stereo not drawn) [Compound 18]    2%

* * *

Item-by-item account of IC50
- System under test: epidermal growth factor receptor tyrosine kinase (Homo sapiens)
- Construct: A native 170,000 epidermal growth factor receptor-kinase complex from shed plasma membrane vesicles; endogenous in cells
- Assay summary: EGF receptor tyrosine kinase assay (P^32 incorporation in GAT)
- Type: biochemical
- Cond: Table 2, EGRF-R; IC50 entries; read-out: IC50 (EGFR TK)
Reported property: IC50 (µM)

1) O=C(O)CC1C(=S)Nc2ccccc21 (stereo not drawn)    14.9
2) Cn1c(SSc2c(C(=O)Nc3ccc(C(=O)O)cc3)c3ccccc3n2C)c(C(=O)Nc2ccc(C(=O)O)cc2)c2ccccc21    16.9
3) COc1ccc2c(C(=O)Nc3ccccc3)c(SSc3c(C(=O)Nc4ccccc4)c4ccc(OC)cc4n3C)n(C)c2c1    3.6
